procedure-details: Hemolytic activity in human RBC at 25 uM after 30 mins relative to control
Type: ADME, cell-based, Erythrocyte
measurement-context: human red blood cells (RBC), read-out: Activity
Positions of bridges follow the written chain, without caps; N, C: chain ends. Non-standard residues stand in square brackets, D forms with d. Residues, ends and D or L forms follow the SMILES beside them. R5 = C=CCCC[C@@](C)(N)C(=O)O
endpoint-name: hemolysis at 0.5 h, 25 µM (%)

1) CC(=O)N[C@@H](CCCCN)C(=O)N[C@]1(C)CCC/C=C\CCC[C@](C)(C(=O)N[C@@H](CCCCN)C(=O)N[C@@H](CCCCN)C(=O)N[C@]2(C)CCC/C=C\CCC[C@](C)(C(=O)N[C@@H](C)C(=O)N[C@@H](CCCCN)C(N)=O)NC(=O)[C@H](C)NC(=O)[C@H](CCCCN)NC(=O)[C@H](C)NC2=O)NC(=O)[C@H](C)NC(=O)[C@H](CCCCN)NC(=O)[C@H](Cc2c[nH]c3ccccc23)NC1=O (Ac-K[R5]WKA[R5]KK[R5]AKA[R5]AK-NH2; staple (Z) 2-6, 9-13) ... 42.5

FYI, the data here is from ChEMBL document CHEMBL3608295.
